test system: L-carnitine amidase; conditions: additive 10 mM; 45 min. preincubation at 30° C.
measured_property: Enzyme activity (%)
Numbers only; they are read as %.

Take a look at these entries with their results.
Data point: [Cl][Ni][Cl] ; Enzyme activity (%) = 79

Lab note: N[C@@H]1CON=C1O gave Enzyme activity (%) of 97

Next:
Consider [Cl-].[Cl-].[Mg+2] . Its measured Enzyme activity (%) is 88

According to the records, this compound [Cl][Fe]([Cl])[Cl] displays Enzyme activity (%) of 46

----------
tested on: L-carnitine amidase; test: Substrate spectrum of L-carnitine amidase; format: biochemical, strain DSM 6230; details: substrate 50 mM; 30° C.; 100 mM potassium phosphate buffer pH 8
Collected Rel. activity (%) values appear next to each entry.

Entry under test: NC(=O)C[C@H](N)C(N)=O . Its Rel. activity (%) was 0%

The reported Rel. activity (%) of the compound C[N+](C)(C)C[C@H](O)CC#N was 0%

The compound listed as C[N+](C)(C)C[C@@H](O)CC(N)=O [D-carnitine amide] has a reported Rel. activity (%) of 0%

Entry CCC(N)=O [Propionamide] — recorded Rel. activity (%) = 0%

Sure, the documented Rel. activity (%) for NC(=O)[C@@H](N)CO is 0%

Lab note: measured Rel. activity (%) of NC(=O)[C@@H](N)Cc1ccccc1 [L-phenylalanine amide] was 0%

Value of Rel. activity (%) reported for the compound CC[C@H](C)[C@H](N)C(N)=O is 0%

For this compound ( C=CC(N)=O [Acrylamide] ), measured Rel. activity (%) is 0%
